# Tested on: MHH-ES-1 (Ewing's Sarcoma)
# experimentalDetails: Bliss excess, mean over the matrix (fraction); higher = more synergy

molecule: Cc1cc2ncnn2cc1Nc1ncc2c(n1)n(C1CCOCC1)c(=O)n2C [AZD7648] + CN(C)CCCOc1ccc(-c2ccc3ncc4c(c3c2)n(C2CCOCC2)c(=O)n4C)cn1 [AZD0156] (first compound max 10 µM, 7x7, partner max 1 µM)
Bliss excess: 0.0138
--
molecule: COc1nnc2ccc(N3CCC(c4ccc(OCCN5CCN(C)C(=O)[C@H]5C)cc4)CC3)nn12 [AZD5153] + CC1(C)CCC(CN2CCN(c3ccc(C(=O)NS(=O)(=O)c4ccc(NCC5CCOCC5)c([N+](=O)[O-])c4)c(Oc4cnc5[nH]ccc5c4)c3)CC2)=C(c2ccc(Cl)cc2)C1 [Venetoclax] (first compound max 1 µM, 7x7, partner max 1 µM)
Bliss excess: -0.046
--
molecule: Cc1c2c(nn1C)CSCc1cc(n(C)n1)CSc1cc(c3ccccc3c1)OCCCc1c(C(=O)O)n(C)c3c-2c(Cl)ccc13 [AZD5991] + CS(=O)(=O)CCNCc1ccc(-c2ccc3ncnc(Nc4ccc(OCc5cccc(F)c5)c(Cl)c4)c3c2)o1 [Lapatinib] (first compound max 1 µM, 7x7, partner max 10 µM)
Bliss excess: 0.0286
--
molecule: C=CCn1c(=O)c2cnc(Nc3ccc(N4CCN(C)CC4)cc3)nc2n1-c1cccc(C(C)(C)O)n1 [AZD1775] + O=C(c1cc(Cc2n[nH]c(=O)c3ccccc23)ccc1F)N1CCN(C(=O)C2CC2)CC1 [Olaparib] (first compound max 1 µM, partner max 10 µM)
Bliss excess: -0.0196

###

# Test system: CAL-27 (Oral Cavity Carcinoma)
# experimentalDetails: Bliss excess, mean over the matrix (fraction); higher = more synergy
reportedMetric: Bliss excess

molecule: COc1nnc2ccc(N3CCC(c4ccc(OCCN5CCN(C)C(=O)[C@H]5C)cc4)CC3)nn12 [AZD5153] + C=CCn1c(=O)c2cnc(Nc3ccc(N4CCN(C)CC4)cc3)nc2n1-c1cccc(C(C)(C)O)n1 [AZD1775] (first compound max 1 µM, partner max 1 µM)
result: -0.0481

molecule: CN(CCO)CC[C@H](CSc1ccccc1)Nc1ccc(S(=O)(=O)NC(=O)c2ccc(N3CCC([C@@H](O)c4ccccc4-c4ccc(Cl)cc4)CC3)cc2)cc1S(=O)(=O)C(F)(F)F [AZD4320] + C1CN(CCC1(C(=O)N[C@@H](CCO)C2=CC=C(C=C2)Cl)N)C3=NC=NC4=C3C=CN4 [Capivasertib] (first compound max 1 µM, 7x7, partner max 3 µM)
result: -0.0362

###

# System: RH-41 (Rhabdomyosarcoma)
# experimentalDetails: combination Emax (second highest fraction inhibited in the dose matrix, 72 h); higher = more inhibition; extreme values may be limits of the assay

molecule: COc1cccc(OCCCN)c1-c1cc(Nc2cnc(C#N)cn2)n[nH]1 [Prexasertib] + C=CCn1c(=O)c2cnc(Nc3ccc(N4CCN(C)CC4)cc3)nc2n1-c1cccc(C(C)(C)O)n1 [AZD1775] (first compound max 1 µM, partner max 1 µM)
systemUnderTest: RH-41 (Rhabdomyosarcoma)
combination Emax: 1
//
molecule: Cc1c2c(nn1C)CSCc1cc(n(C)n1)CSc1cc(c3ccccc3c1)OCCCc1c(C(=O)O)n(C)c3c-2c(Cl)ccc13 [AZD5991] + Cc1cc2ncnn2cc1Nc1ncc2c(n1)n(C1CCOCC1)c(=O)n2C [AZD7648] (first compound max 1 µM, 7x7, partner max 10 µM)
systemUnderTest: RH-41 (Rhabdomyosarcoma)
combination Emax: 1
//
molecule: Cn1cnc2c(F)c(Nc3ccc(Br)cc3Cl)c(C(=O)NOCCO)cc21 [Selumetinib] + CCN(CCO)CCCOc1ccc2c(Nc3cc(CC(=O)Nc4cccc(F)c4)[nH]n3)ncnc2c1 [AZD2811] (first compound max 10 µM, 7x7, partner max 1 µM)
systemUnderTest: RH-41 (Rhabdomyosarcoma)
combination Emax: 0.309
//
molecule: CC(=O)c1c(C)c2cnc(Nc3ccc(N4CCNCC4)cn3)nc2n(C2CCCC2)c1=O [Palbociclib] + Cn1cnc2c(F)c(Nc3ccc(Br)cc3Cl)c(C(=O)NOCCO)cc21 [Selumetinib] (first compound max 10 µM, 7x7, partner max 10 µM)
systemUnderTest: RH-41 (Rhabdomyosarcoma)
combination Emax: 0.269
//
molecule: Cn1cnc2c(F)c(Nc3ccc(Br)cc3Cl)c(C(=O)NOCCO)cc21 [Selumetinib] + C=CCn1c(=O)c2cnc(Nc3ccc(N4CCN(C)CC4)cc3)nc2n1-c1cccc(C(C)(C)O)n1 [AZD1775] (first compound max 10 µM, partner max 1 µM)
systemUnderTest: RH-41 (Rhabdomyosarcoma)
combination Emax: 0.974
//
molecule: CC1(C)CCC(CN2CCN(c3ccc(C(=O)NS(=O)(=O)c4ccc(NCC5CCOCC5)c([N+](=O)[O-])c4)c(Oc4cnc5[nH]ccc5c4)c3)CC2)=C(c2ccc(Cl)cc2)C1 [Venetoclax] + CN(C)CCCOc1ccc(-c2ccc3ncc4c(c3c2)n(C2CCOCC2)c(=O)n4C)cn1 [AZD0156] (first compound max 1 µM, 7x7, partner max 1 µM)
systemUnderTest: RH-41 (Rhabdomyosarcoma)
combination Emax: 0.491
//
molecule: COc1nnc2ccc(N3CCC(c4ccc(OCCN5CCN(C)C(=O)[C@H]5C)cc4)CC3)nn12 [AZD5153] + CN(CC[C@H](CSC1=CC=CC=C1)NC2=C(C=C(C=C2)S(=O)(=O)NC(=O)C3=CC=C(C=C3)N4CCC(CC4)[C@H](C5=CC=CC=C5C6=CC=C(C=C6)Cl)O)S(=O)(=O)C(F)(F)F)CCO [AZD4320] (first compound max 1 µM, 7x7, partner max 1 µM)
systemUnderTest: RH-41 (Rhabdomyosarcoma)
combination Emax: 1
//
molecule: CCN(CCO)CCCOc1ccc2c(Nc3cc(CC(=O)Nc4cccc(F)c4)[nH]n3)ncnc2c1 [AZD2811] + C=CCn1c(=O)c2cnc(Nc3ccc(N4CCN(C)CC4)cc3)nc2n1-c1cccc(C(C)(C)O)n1 [AZD1775] (first compound max 1 µM, partner max 1 µM)
systemUnderTest: RH-41 (Rhabdomyosarcoma)
combination Emax: 0.961
//
molecule: CC1(C)CCC(CN2CCN(c3ccc(C(=O)NS(=O)(=O)c4ccc(NCC5CCOCC5)c([N+](=O)[O-])c4)c(Oc4cnc5[nH]ccc5c4)c3)CC2)=C(c2ccc(Cl)cc2)C1 [Venetoclax] + C=CCn1c(=O)c2cnc(Nc3ccc(N4CCN(C)CC4)cc3)nc2n1-c1cccc(C(C)(C)O)n1 [AZD1775] (first compound max 1 µM, partner max 1 µM)
systemUnderTest: RH-41 (Rhabdomyosarcoma)
combination Emax: 1

###

# System: RH-41 (Rhabdomyosarcoma)
# experimentalDetails: Bliss excess, mean over the matrix (fraction); higher = more synergy

compound: Cn1cnc2c(F)c(Nc3ccc(Br)cc3Cl)c(C(=O)NOCCO)cc21 [Selumetinib] + CC(C)n1c(=O)n(C)c2cnc3cc(F)c(-c4ccc(OCCCN5CCCCC5)nc4)cc3c21 [AZD1390] (first compound max 10 µM, 7x7, partner max 0.3 µM)
Bliss excess: -0.0082
--
compound: CN(C)CCCOc1ccc(-c2ccc3ncc4c(c3c2)n(C2CCOCC2)c(=O)n4C)cn1 [AZD0156] + CCN(CCO)CCCOc1ccc2c(Nc3cc(CC(=O)Nc4cccc(F)c4)[nH]n3)ncnc2c1 [AZD2811] (first compound max 1 µM, 7x7, partner max 1 µM)
Bliss excess: 0.0369
--
compound: COc1cccc(OCCCN)c1-c1cc(Nc2cnc(C#N)cn2)n[nH]1 [Prexasertib] + C=CCn1c(=O)c2cnc(Nc3ccc(N4CCN(C)CC4)cc3)nc2n1-c1cccc(C(C)(C)O)n1 [AZD1775] (first compound max 1 µM, partner max 1 µM)
Bliss excess: 0.0677
--
compound: COc1nnc2ccc(N3CCC(c4ccc(OCCN5CCN(C)C(=O)[C@H]5C)cc4)CC3)nn12 [AZD5153] + Cc1c2c(nn1C)CSCc1cc(n(C)n1)CSc1cc(c3ccccc3c1)OCCCc1c(C(=O)O)n(C)c3c-2c(Cl)ccc13 [AZD5991] (first compound max 1 µM, 7x7, partner max 1 µM)
Bliss excess: 0.012
--
compound: Cc1nc(Nc2ncc(C(=O)Nc3c(C)cccc3Cl)s2)cc(N2CCN(CCO)CC2)n1 [Dasatinib] + CC(=O)Nc1cccc(-n2c(=O)n(C3CC3)c(=O)c3c(Nc4ccc(I)cc4F)n(C)c(=O)c(C)c32)c1 [Trametinib] (first compound max 2 µM, 7x7, partner max 1 µM)
Bliss excess: -0.0946
--
compound: COc1cccc(OCCCN)c1-c1cc(Nc2cnc(C#N)cn2)n[nH]1 [Prexasertib] + Cc1cc2ncnn2cc1Nc1ncc2c(n1)n(C1CCOCC1)c(=O)n2C [AZD7648] (first compound max 1 µM, 7x7, partner max 10 µM)
Bliss excess: -0.0453
--
compound: CN(CCO)CC[C@H](CSc1ccccc1)Nc1ccc(S(=O)(=O)NC(=O)c2ccc(N3CCC([C@@H](O)c4ccccc4-c4ccc(Cl)cc4)CC3)cc2)cc1S(=O)(=O)C(F)(F)F [AZD4320] + Cn1cnc2c(F)c(Nc3ccc(Br)cc3Cl)c(C(=O)NOCCO)cc21 [Selumetinib] (first compound max 1 µM, 7x7, partner max 3 µM)
Bliss excess: 0.0087
--
compound: CCN(CCO)CCCOc1ccc2c(Nc3cc(CC(=O)Nc4cccc(F)c4)[nH]n3)ncnc2c1 [AZD2811] + O=C(c1cc(Cc2n[nH]c(=O)c3ccccc23)ccc1F)N1CCN(C(=O)C2CC2)CC1 [Olaparib] (first compound max 1 µM, 7x7, partner max 10 µM)
Bliss excess: 0.0053
--
compound: CC1(C)CCC(CN2CCN(c3ccc(C(=O)NS(=O)(=O)c4ccc(NCC5CCOCC5)c([N+](=O)[O-])c4)c(Oc4cnc5[nH]ccc5c4)c3)CC2)=C(c2ccc(Cl)cc2)C1 [Venetoclax] + C[C@@H]1COCCN1C2=NC(=NC(=C2)C3(CC3)[S@](=N)(=O)C)C4=C5C=CNC5=NC=C4 [AZD6738] (first compound max 1 µM, 7x7, partner max 10 µM)
Bliss excess: 0.0355
--
compound: Cc1c2c(nn1C)CSCc1cc(n(C)n1)CSc1cc(c3ccccc3c1)OCCCc1c(C(=O)O)n(C)c3c-2c(Cl)ccc13 [AZD5991] + C[C@@H](Nc1cc(F)cc(F)c1)c1cc(C(=O)N(C)C)cc2c(=O)cc(N3CCOCC3)oc12 [AZD8186] (first compound max 1 µM, 7x7, partner max 3 µM)
Bliss excess: -0.0114
--
compound: C[C@@H](c1ccc2nccn2c1)n1nnc2ncc(-c3cnn(C)c3)nc21 [Savolitinib] + CC1(C)CCC(CN2CCN(c3ccc(C(=O)NS(=O)(=O)c4ccc(NCC5CCOCC5)c([N+](=O)[O-])c4)c(Oc4cnc5[nH]ccc5c4)c3)CC2)=C(c2ccc(Cl)cc2)C1 [Venetoclax] (first compound max 1 µM, 7x7, partner max 1 µM)
Bliss excess: -0.0483
--
compound: COc1nnc2ccc(N3CCC(c4ccc(OCCN5CCN(C)C(=O)[C@H]5C)cc4)CC3)nn12 [AZD5153] + CC1(C)CCC(CN2CCN(c3ccc(C(=O)NS(=O)(=O)c4ccc(NCC5CCOCC5)c([N+](=O)[O-])c4)c(Oc4cnc5[nH]ccc5c4)c3)CC2)=C(c2ccc(Cl)cc2)C1 [Venetoclax] (first compound max 1 µM, 7x7, partner max 1 µM)
Bliss excess: 0.0374
--
compound: CC(=O)Nc1cccc(-n2c(=O)n(C3CC3)c(=O)c3c(Nc4ccc(I)cc4F)n(C)c(=O)c(C)c32)c1 [Trametinib] + Cc1nc(-c2cn3c(n2)-c2ccc(-c4cnn(C(C)(C)C(N)=O)c4)cc2OCC3)n(C(C)C)n1 [Taselisib] (first compound max 1 µM, 7x7, partner max 10 µM)
Bliss excess: 0.0419
